# System: KMM-1 cell line
# test: Proliferation assay
# Type: cell-based
# applied.conditions: NRAS G13D, p-ERK High, read-out: IC50 (μM) Trametinib
endpoint.name: IC50
Quote the value and follow it with the unit of measurement.

Note IC50 for the compound shown: CC(=O)Nc1cccc(-n2c(=O)n(C3CC3)c(=O)c3c(Nc4ccc(I)cc4F)n(C)c(=O)c(C)c32)c1
0.00169 µM

====

# Test system: AMO1 control shRNA cells
# test: Proliferation assay in control shRNA cells
# Format: cell-based
# applied.conditions: Homo sapiens, AMO1, read-out: IC50, proliferation
endpoint.name: IC50 (nM)
A number alone suffices; assume nM.

Note IC50 for the compound shown: N#Cc1ccc(N2CCN(Cc3ccc(COc4cccc5c4CN([C@H]4CCC(=O)NC4=O)C5=O)cc3)CC2)c(F)c1 [Compound 6]
29.6
